# method summary: xn = mol fraction of the nth substance listed
# assay context: 303.15 K; 101 kPa; x2 = 0.7
In this section, each of the compounds is paired with its reported viscosity.

compound	viscosity / mPa·s
COc1ccccc1O + Cc1ccccc1	0.815
COc1ccccc1O + c1ccccc1	0.873
COc1ccccc1O + CC(C)=O	0.755
COc1ccccc1O + Nc1ccccc1	4.58

====

# method summary: xn = mol fraction of the nth substance listed
# assay context: 303.15 K; 101 kPa; x2 = 0.5
Hi! Could you tag entries with viscosity below 3 mPa·s as true, and those at or above as false? Much appreciated.

compound	group label
COc1ccccc1O + CNc1ccccc1	true
COc1ccccc1O + c1ccccc1	true
COc1ccccc1O + Cc1ccccc1	true
COc1ccccc1O + CC(C)=O	true
COc1ccccc1O + Nc1ccccc1	false

====

# method summary: xn = mol fraction of the nth substance listed
# assay context: 303.15 K; 101 kPa; x2 = 0.1
In this section, each of the compounds is paired with its reported viscosity.
result type: viscosity (mPa·s)

compound	result type	result value
COc1ccccc1O + Cc1ccccc1N	viscosity	4.73
COc1ccccc1O + Cc1ccccc1	viscosity	3.17
COc1ccccc1O + c1ccccc1	viscosity	3.4
COc1ccccc1O + CNc1ccccc1	viscosity	4
